experimental-system: T1, extracellular domain (ECD) of human TrkA protein, N-terminal flag tag and C-terminal His tag (PHA) (human, UniProt P04629 33-423)
T1 construct: Made in 293-F cells and purified by IMAC; also called TrkA ECD protein; TrkA (ECD); not shown: flag tag at the N-terminus (after the signal peptide); His tag at the C-terminus
T1 sequence (P04629 33-423): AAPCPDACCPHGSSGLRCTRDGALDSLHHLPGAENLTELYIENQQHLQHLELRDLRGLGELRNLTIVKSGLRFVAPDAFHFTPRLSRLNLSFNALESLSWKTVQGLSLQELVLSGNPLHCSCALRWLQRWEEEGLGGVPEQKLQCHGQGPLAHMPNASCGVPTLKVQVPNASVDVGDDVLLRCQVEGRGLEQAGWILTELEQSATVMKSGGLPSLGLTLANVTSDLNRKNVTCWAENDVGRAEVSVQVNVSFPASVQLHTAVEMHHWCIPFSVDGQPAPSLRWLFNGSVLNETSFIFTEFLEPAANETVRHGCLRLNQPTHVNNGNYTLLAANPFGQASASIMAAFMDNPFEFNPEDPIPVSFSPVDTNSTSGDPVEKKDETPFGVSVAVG
protocol-notes: affinity after affinity maturation; method not stated in Example 5
Provide the recorded kon for the entries that follow.

Challenge: Return value of kon for input PHD49-05 (antibody, V domains shown) VH: QVQLVQSGAEVKKPGSSVKVSCKASGYTFSSHWIQWVRQAPGQGLEWIGAIYPGDDDTIYTQKFQGRATITTDKSTSTAYMELSSLRSEDTAVYYCARNYDYQAWFAYWGQGTLVTVSS VL: DIQMTQSPSSLSASVGDRVTITCRASSSVSYLYWYQQKPGKAPKPLIYLTSSLASGVPSRFSGSGSGTDYTLTISSLQPEDFATYYCQQWSSNPLTFGQGTKLEIK , no commentary.
Response given: 299000 M⁻¹ s⁻¹

Challenge: Return value of kon for input PHD49-21 (antibody, V domains shown) VH: QVQLVQSGAEVKKPGSSVKVSCKASGFTFSSYWIQWVRQAPGQGLEWIGAIYTGDGDTIYTQKFQGRATITTDESTSTAYMELSSLRSEDTAVYYCARNYHYQAWFDYWGQGTLVTVSS VL: DIQMTQSPSSLSASVGDRVTITCRASSSVSYLYWYQQKPGKAPKPLIYLTSDLASGVPSRFSGSGSGTDYTLTISSLQPEDFATYYCQQWSSNPLTFGQGTKLEIK , no commentary.
Response given: 367000 M⁻¹ s⁻¹

Challenge: Return value of kon for input chi-PHD49 (antibody, V domains shown, Chimeric: human IgG4 / human kappa constant regions (pCDNA3.4-hIgG4 and pCDNA3.4-hKappa vectors)) VH: QVQLQQSGAELARPGASVKLSCKASGYTFSSYWMQWVKQRPGQGLEWIGAIYPGDDDTIYTQKFKGKATLTADKSSSTAYMQLSSLASEDSAVYYCARNYDYQAWFAYWGQGTLVTVSA VL: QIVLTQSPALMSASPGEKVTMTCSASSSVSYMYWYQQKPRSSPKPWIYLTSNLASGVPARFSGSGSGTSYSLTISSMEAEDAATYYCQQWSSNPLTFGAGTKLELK , no commentary.
Response given: 219000 M⁻¹ s⁻¹

Challenge: Return value of kon for input PHD49 (antibody, V domains shown) VH: QVQLVQSGAEVKKPGSSVKVSCKASGFTFSSYWIQWVRQAPGQGLEWIGAIYTGDGDTIYTQKFQGRATITTDESTSTAYMELSSLRSEDTAVYYCARNYHYQAWFDYWGQGTLVTVSS VL: DIQMTQSPSSLSASVGDRVTITCRASSSVSYLYWYQQKPGKAPKPLIYLTSSLASGVPSRFSGSGSGTDYTLTISSLQPEDFATYYCQQWSSNPLTFGQGTKLEIK , no commentary.
Response given: 300000 M⁻¹ s⁻¹
